# Condition Description: in sec-butanol, 323.23 K
Value Type: solubility (mole fraction)
Field format: numeric only.

(Q) Reported solubility (mole fraction), compound `COC(=O)/C=C(\C)N[C@@H](C(=O)[O-])c1ccc(O)cc1.[K+]` : ____
(A) 0.000113

---

# Condition Description: in ethanol, 328.18 K
Value Type: solubility (mole fraction)
Please respond with just the number, no unit label.

(Q) I have this compound here, `COC(=O)/C=C(\C)N[C@@H](C(=O)[O-])c1ccc(O)cc1.[K+]` , and I need its recorded solubility (mole fraction).
(A) 0.000753

---

# Condition Description: in methanol, 318.27 K
Value Type: solubility (mole fraction)
Respond numerically, and do not add a unit to the figure.

(Q) Can you look up the measured solubility (mole fraction) of `COC(=O)/C=C(\C)N[C@@H](C(=O)[O-])c1ccc(O)cc1.[K+]` for me?
(A) 0.00485

---

# Condition Description: in 2-pentanol, 333.05 K
Value Type: solubility (mole fraction)
Output spec: single numeric token, no unit.

(Q) Name the reported solubility (mole fraction) value associated with the compound `COC(=O)/C=C(\C)N[C@@H](C(=O)[O-])c1ccc(O)cc1.[K+]`
(A) 0.000267

---

# Condition Description: in isopropanol, 298.23 K
Value Type: solubility (mole fraction)
Number only, no unit.

(Q) Any idea what its solubility (mole fraction) is? The compound is `COC(=O)/C=C(\C)N[C@@H](C(=O)[O-])c1ccc(O)cc1.[K+]`
(A) 6.38e-05

---

# Condition Description: in 2-pentanol, 303.35 K
Value Type: solubility (mole fraction)

(Q) What does the record list as solubility (mole fraction) for `COC(=O)/C=C(\C)N[C@@H](C(=O)[O-])c1ccc(O)cc1.[K+]` ?
(A) 9.99e-05

---

# Condition Description: in n-pentanol, 293.05 K
Value Type: solubility (mole fraction)
Lab note: jot down the number only; don't add units.

(Q) # solubility (mole fraction) lookup, item `COC(=O)/C=C(\C)N[C@@H](C(=O)[O-])c1ccc(O)cc1.[K+]`
(A) 8.48e-05

---

# Condition Description: in n-pentanol, 313.07 K
Value Type: solubility (mole fraction)
// return a plain number; no unit text

(Q) Request the reported solubility (mole fraction) associated with `COC(=O)/C=C(\C)N[C@@H](C(=O)[O-])c1ccc(O)cc1.[K+]`
(A) 0.000152

---

# Condition Description: in n-propanol, 323.05 K
Value Type: solubility (mole fraction)
Please respond with just the number, no unit label.

(Q) Which measured solubility (mole fraction) value corresponds to `COC(=O)/C=C(\C)N[C@@H](C(=O)[O-])c1ccc(O)cc1.[K+]` ?
(A) 0.000306

---

# Condition Description: in sec-butanol, 308.17 K
Value Type: solubility (mole fraction)
No unit in the answer, only the number.

(Q) Quick one: solubility (mole fraction) of `COC(=O)/C=C(\C)N[C@@H](C(=O)[O-])c1ccc(O)cc1.[K+]` ?
(A) 6.64e-05

---

# Condition Description: in isopropanol, 338.27 K
Value Type: solubility (mole fraction)
Answer with a number only.

(Q) Reported solubility (mole fraction), compound `COC(=O)/C=C(\C)N[C@@H](C(=O)[O-])c1ccc(O)cc1.[K+]` : ____
(A) 0.000198

---

# Condition Description: in methanol, 313.35 K
Value Type: solubility (mole fraction)
Format: numeric value only, no unit, no commentary.

(Q) May I ask what solubility (mole fraction) has been recorded for `COC(=O)/C=C(\C)N[C@@H](C(=O)[O-])c1ccc(O)cc1.[K+]` ?
(A) 0.00454
